System: OVCAR-8
Assay: NCI tumour cell line growth inhibition, 48 h
Active and inactive are the calls of the source. Rule as the data show it: active = GI50 up to about 1.1 µM and inactive = higher.
Would you mind answering with one of these outcomes? active, inactive

Some entries whose results are on file:
O=C1/C(=C/c2ccc(Cl)cc2)CCCc2ccccc21 ... inactive
COC(=O)CC[C@@H](NC(=O)C(C)NC(=O)COC1C(O)C(COC(=O)CCCCCCCCCCNC(=O)c2ccc([N+](=O)[O-])c3[nH]c4cc(Br)ccc4c(=O)c23)OC(OCc2ccccc2)C1NC(C)=O)C(N)=O (some centres not stated) ... inactive
OC1CC2CCC(C1)N2CCCN1c2ccccc2Sc2ccc(Cl)cc21 (configuration not stated) ... inactive

[ask] // return assay outcome for O=C(O)CCSCc1ccccc1
[reply] inactive

[ask] GET /call?item= COc1ccc(/N=N/c2c(-c3ccccc3)nn(C(=O)CC(=O)Nc3cccc(Cl)c3)c2-c2ccccc2)cc1 returns the recorded outcome of this test.
[reply] inactive

[ask] Could you check what this test reported for CC(=O)Oc1ccc2c(c1)O/C(=C\c1ccc(O)cc1)C2=O ?
[reply] inactive

[ask] Answer briefly: the call reported for CC(=O)N1CCOC12N=NC(C)(C)O2 (configuration not stated) in this assay.
[reply] inactive

[ask] # outcome recorded in this test, key = CO[C@@](c1ccccc1)(c1nc(C#N)c(N)o1)C(F)(F)F
[reply] inactive

[ask] What call does the record list for CCN1CCN=C2c3cc(OC)ccc3Nc3c([N+](=O)[O-])ccc1c32 ?
[reply] active

[ask] Please indicate how the test categorized CCOC(=O)/C(C(=O)c1ccc([N+](=O)[O-])cc1)=C(\NS(=O)(=O)c1cc(C)c(Cl)cc1[S-])[n+]1ccc(N(C)C)cc1 .
[reply] inactive

[ask] What classification did CC(C)(C)CN1[C@@H]2CCCC[C@H]2N(CC(C)(C)C)P1(=O)Cc1ccccc1 end up with in this test?
[reply] inactive

[ask] Kindly provide the recorded test outcome for the following compound: Cc1c2c(n(Cc3ccccn3)c1C)NN=C(C#N)S2(=O)=O
[reply] inactive

---

Tested on: U-251
Assay: NCI tumour cell line growth inhibition, 48 h
The source made the active and inactive calls. Rule as the data show it: active = GI50 up to about 1.1 µM and inactive = higher.
A correct response names exactly one class from yes (active), no (inactive)

Below, 3 compounds whose answers are already recorded.
O=C(CC1(O)C(=O)Nc2c(Cl)cc(Cl)cc21)c1ccc(F)cc1 (stereo unspecified) ... no
CC[C@@]1(O)C(=O)OCc2c1cc1n(c2=O)Cc2c-1nc1ccccc1c2/C=N\c1ccc(N[C@@H]2c3cc4c(cc3[C@@H](c3cc(OC)c(O)c(OC)c3)[C@H]3C(=O)OC[C@@H]32)OCO4)cc1 ... yes
COc1ccc2c(=O)c3ccoc3[nH]c2c1 ... no

[ask] Outcome logged for CC(=O)O[C@@H]1O[Si](C(C)(C)C)(C(C)(C)C)[C@H](C)[C@H]1C in this assay:
[reply] no

[ask] Record lookup: outcome of this test for COC(=O)C1CC2(CCC1=O)Cc1ccccc1C2=O (stereo unspecified) ?
[reply] no

[ask] Tell me the recorded outcome of this test for CC(NS(=O)(=O)c1ccc(Cl)cc1)C(=O)O (stereo unspecified) .
[reply] no

---

Test system: TK-10
Test: NCI tumour cell line growth inhibition, 48 h
The source made the active and inactive calls. Rule as the data show it: active = GI50 up to about 1.1 µM and inactive = higher.
Items are presented alongside their recorded GI50.

COc1ccc2c(c1)CC[C@@H]1C2CC[C@]2(C)C(=O)N(CCN(C)C)C(=O)CC12 (stereo partly drawn) ... > 100 µM (inactive)
O=C1C=CC2(C=C1)CCNC1=C2C(=O)c2ccccc2C1=O ... > 100 µM (inactive)

[ask] Specify measured GI50 for O=C1/C(=C/c2ccc(Cl)cc2)CCCc2ccccc21 .
[reply] 21.6 µM (inactive)

---

System: XF498
Experiment: NCI tumour cell line growth inhibition, 48 h
The source made the active and inactive calls. Rule as the data show it: active = GI50 up to about 1.1 µM and inactive = higher.
ENDPOINT_LABEL: GI50

Answered examples (5):
COc1ccc(/N=N/c2c(-c3ccccc3)nn(C(=O)CC(=O)Nc3cccc(Cl)c3)c2-c2ccccc2)cc1 ... > 100 µM (inactive)
O=C(N/C(=C\c1cccc([N+](=O)[O-])c1)c1nc2c3c(ccc2[nH]1)C(=O)c1ccccc1C3=O)c1ccccc1 ... 57.9 µM (inactive)
O=c1/c(=C/c2ccco2)sc2nc3ccccc3n12 ... > 10 µM (inactive)
CCOC(=O)/C=C(\C)c1ccc(OC)cc1 ... > 100 µM (inactive)
Nc1[nH]cnc2ncnc1-2 ... 9.4 µM (inactive)

Now take the following molecule into account.
[ask] Supply GI50 value. Item: C#CCn1c(=O)c2cccnc2n(CC#C)c1=O
[reply] > 100 µM (inactive)

---

The following compounds are shown together with reported GI50 values.
Test system: MDA-MB-435
Assay: NCI tumour cell line growth inhibition, 48 h
Active and inactive are the calls of the source. Rule as the data show it: active = GI50 up to about 1.1 µM and inactive = higher.

Consider the worked cases shown below.
OCCSCc1cc(Cl)cc(Cl)c1O ... > 100 µM (inactive)
O=[N+]([O-])/C(Cl)=C(/C(Cl)=C(Cl)Cl)N1CCCCC1 ... 8.81 µM (inactive)
CC1=NN2C(=N)/C(=C/c3ccccc3)C(=O)N=C2S1 ... > 100 µM (inactive)

Next, consider the following compound.
[ask] Give the value of GI50 reported for the following: O=C(O)CSc1ccccc1C(=O)O
[reply] > 100 µM (inactive)

---

System: SK-MEL-28
Assay: NCI tumour cell line growth inhibition, 48 h
The source made the active and inactive calls. Cut-off read from the data, not from the text of the source: active = GI50 up to about 1.1 µM and inactive = higher.
API: response.call in class 1 for active, class 0 for inactive

Solved entries:
O=C1C(=Cc2cccs2)C(=O)N(CCc2ccccc2)S(=O)(=O)N1CCc1ccccc1 ... class 0
O=C1c2ccccc2C(=O)c2c(/C=C\N3CCCCC3)ccnc21 ... class 1
COc1cccc(N2C(=O)CSC2c2cc(OC)c(OC)c(OC)c2)c1 (centres undefined) ... class 0
O=c1[nH]c2c(C(F)(F)F)c(Cl)c(-c3ccccc3)nc2o1 ... class 0
C=CCC1(CN(C)C)CC/C(=C\c2ccc(Cl)cc2)C1=O (centres undefined) ... class 0

[ask] How was Oc1cccnc1CN1CCCCC1 classified in this test?
[reply] class 0

[ask] Hi team, can someone confirm the assay call for CC(=O)Nc1nc(O)c2nc(C=O)cnc2n1 ?
[reply] class 0

[ask] Please state the recorded outcome for this molecule: CC(=S)NC1C(Oc2ccc3c(C)cc(=O)oc3c2)OC(CO)C(O)C1O (centres undefined)
[reply] class 0

[ask] Kindly provide the recorded test outcome for the following molecule: Oc1nc2nc3ccccc3nc2nc1O
[reply] class 0

---

Test system: RPMI-8226
Assay: NCI tumour cell line growth inhibition, 48 h
Active and inactive are the calls of the source. Cut-off read from the data, not from the text of the source: active = GI50 up to about 1.1 µM and inactive = higher.
API: response.call in T for active, F for inactive

Here's what some known entries look like.
CC(=O)OC[C@@H]1[C@H]2CC(=O)O[C@H]2C[C@H]1OC(C)=O ... F
COc1ccc(C2c3cc4c(cc3OC(NNS(=O)(=O)c3ccc(C)cc3)C2C)OCO4)cc1 (stereo unspecified) ... F
COc1ccc(-c2csc(-n3c(-c4ccccc4)nc4c(Br)cc(Br)cc4c3=O)n2)cc1 ... F
Cc1cc(CCC(=O)NCCNc2c3ccccc3nc3ccccc23)cc(C)c1O[Si](C)(C)C(C)(C)C ... T
O=C(Cc1ccccc1)NCCCN(CCCCN(CCCNC(=O)Cc1ccccc1)C(=O)OCc1ccccc1)C(=O)OCc1ccccc1 ... F

[ask] What is the recorded call for this compound in the test? O=S(=O)(c1ccccc1)C(c1ccc2ccccc2n1)S(=O)(=O)c1ccccc1
[reply] F

[ask] What is the recorded call for this compound in the test? C[C@]12CC(c3ccccc3O1)C(C#N)C(=O)N2 (stereo partly specified)
[reply] F

[ask] Outcome? COc1ccccc1NC(=O)CC(=O)N1N=C(C)C(/N=N/c2ccc(C(=O)O)cc2)C1=O (stereo unspecified)
[reply] F

---

Tested on: SN12C
Assay: NCI tumour cell line growth inhibition, 48 h
The source made the active and inactive calls. Rule as the data show it: active = GI50 up to about 1.1 µM and inactive = higher.
ENDPOINT_LABEL: GI50

Use these answered entries as a reference point.
Nc1[nH]cnc2ncnc1-2 ... 96.2 µM (inactive)
CS(=O)(=O)ON1C(=O)c2ccc(N)cc2C1=O ... > 100 µM (inactive)
O=[N+]([O-])/C=C\c1c[nH]c2ccc(OCc3ccccc3)cc12 ... 2.24 µM (inactive)

[ask] Specify the recorded GI50 for COc1cc2c(cc1OCCCOc1cc(-c3ccc(F)cc3)nc(C)n1)N=C[C@@H]1CCCN1C2=O , system: SN12C.
[reply] 16.5 µM (inactive)

[ask] Find the measured GI50 of c1ccc2/c3[nH]/c(c2c1)=N\c1ccc(cc1)-c1nc2cc(ccc2o1)/N=c1/[nH]/c(c2ccccc12)=N/c1ccc2nc(oc2c1)-c1ccc(cc1)\N=3 with SN12C as test system.
[reply] > 100 µM (inactive)

---

System: NCI/ADR-RES
Assay: NCI tumour cell line growth inhibition, 48 h
Activity calls are given as the source filed them. No stated cut-off is given here; in the data, active = GI50 up to about 1.1 µM and inactive = higher.
ENDPOINT_LABEL: GI50

# example entries with known answers
COc1nc2c(c(=O)n1C)N[C@@H]1[C@@H](O)[C@H](O)CO[C@@H]1N2 ... > 100 µM (inactive)
Cc1c2c(n(Cc3ccccn3)c1C)NN=C(C#N)S2(=O)=O ... > 100 µM (inactive)
O=C(N(O)c1ccccc1Cl)C(O)(c1ccccc1)c1ccccc1 ... 63.8 µM (inactive)
Cc1nc2c(N3CCCC3)nc(N3CCNCC3)nc2nc1NCc1ccccc1 ... 13 µM (inactive)
O=C(Oc1ccccc1)c1cc2cc(CCl)ccc2oc1=O ... 30 µM (inactive)

[ask] Please give the documented GI50 of CC1=NN2C(=N)/C(=C/c3ccccc3)C(=O)N=C2S1
[reply] > 33.1 µM (inactive)

[ask] Tell me GI50 reported for O=C(CCc1cc(O)ccc1O)OCCc1ccccc1
[reply] 19.1 µM (inactive)

[ask] Assign GI50 to the following record: O=[N+]([O-])c1cc(Cl)ccc1S(=O)(=O)c1cc(Cl)cc2c1NCCC2
[reply] 71.4 µM (inactive)

[ask] Provide measured GI50 value, entry: COc1ccc(/C(=N/N=c2[nH]c3ccccc3[nH]2)C(=O)O)cc1
[reply] > 100 µM (inactive)

Each recorded value in this set is attributed to ChEMBL document CHEMBL1201862.
